system: Candida albicans; experiment: Inhibitory concentration against Candida albicans 2005E protein synthesis; assay type: functional, organism-based
quantity-name: pIC50
In textbook form, pIC50 equals minus log to base ten of the concentration in mol/L.

q: Please indicate pIC50 recorded for CC(C)C1=CC2C[C@]3(C=O)C4CCC(C)C4C[C@]2(CO)[C@]13C(=O)O (stereo partly specified)
a: 6.30
